details: human, in vivo, po
REPORTED_ENDPOINT: concentration

Query: Item under review: `O=C(CCCN1CCC(O)(c2ccc(Cl)cc2)CC1)c1ccc(F)cc1` . Reported concentration?
Reply: 10 to 350 nM
